Attribution: the NIST ThermoML archive (doi:10.1021/acs.jced.7b00221)

- assayProtocol: xn = mol fraction of the nth substance listed
- experimentalContext: 318.15 K; 100 kPa; Liquid; Vibrating tube method; x1 = 0.25
measuredProperty: mass density (kg/m3)
Report as a plain number; the unit kg/m3 is understood.

Please review the entries below; each comes with its answer.
{"compound": "CCCCCCCC[P+](CC)(CC)CC.O=[N+]([O-])c1cn[n-]c1 [triethyloctylphosphonium 4-nitropyrazolide] + CCCCCC[n+]1ccn(C)c1.O=S(=O)([N-]S(=O)(=O)C(F)(F)F)C(F)(F)F", "mass density (kg/m3)": 1267.7}
{"compound": "CCCCCCn1cc[n+](C)c1.O=[N+]([O-])c1cn[n-]c1 [1-hexyl-3-methylimidazolium 4-nitropyrazolide] + CCCCCCCCCCCCCC[P+](CCCCCC)(CCCCCC)CCCCCC.O=S(=O)([N-]S(=O)(=O)C(F)(F)F)C(F)(F)F", "mass density (kg/m3)": 1056.8}
{"compound": "CCCCCCCC[P+](CC)(CC)CC.O=[N+]([O-])c1cn[n-]c1 [triethyloctylphosphonium 4-nitropyrazolide] + CCCCCCn1cc[n+](C)c1C.O=S(=O)([N-]S(=O)(=O)C(F)(F)F)C(F)(F)F", "mass density (kg/m3)": 1261.7}

Let us move to another entry and its mass density.
Ask: Given CCCCCCn1cc[n+](C)c1C.O=[N+]([O-])c1cn[n-]c1 [1-hexyl-2,3-dimethylimidazolium 4-nitropyrazolide] + CCCCCCCCCCCCCC[P+](CCCCCC)(CCCCCC)CCCCCC.O=S(=O)([N-]S(=O)(=O)C(F)(F)F)C(F)(F)F , state its recorded mass density.
Reply: 1057

====

A collection of compounds and their measured mass density
- assayProtocol: xn = mol fraction of the nth substance listed
- experimentalContext: 298.15 K; 100 kPa; Liquid; Vibrating tube method; x1 = 0.25
Report as a plain number; the unit kg/m3 is understood.

Please review the entries below; each comes with its answer.
{"compound": "CCCCCCCC[P+](CC)(CC)CC.O=[N+]([O-])c1cn[n-]c1 [triethyloctylphosphonium 4-nitropyrazolide] + CCCCCCn1cc[n+](C)c1C.O=S(=O)([N-]S(=O)(=O)C(F)(F)F)C(F)(F)F", "units": "kg/m3", "mass density": 1277.6}
{"compound": "CCCCCCn1cc[n+](C)c1C.O=[N+]([O-])c1cn[n-]c1 [1-hexyl-2,3-dimethylimidazolium 4-nitropyrazolide] + CCCCCCCCCCCCCC[P+](CCCCCC)(CCCCCC)CCCCCC.O=S(=O)([N-]S(=O)(=O)C(F)(F)F)C(F)(F)F", "units": "kg/m3", "mass density": 1071.1}
{"compound": "CCCCCCCC[P+](CC)(CC)CC.O=[N+]([O-])c1cn[n-]c1 [triethyloctylphosphonium 4-nitropyrazolide] + CCCCCC[n+]1ccn(C)c1.O=S(=O)([N-]S(=O)(=O)C(F)(F)F)C(F)(F)F", "units": "kg/m3", "mass density": 1284.1}

Let us move to another entry and its mass density.
Ask: Given CCCCCCn1cc[n+](C)c1.O=[N+]([O-])c1cn[n-]c1 [1-hexyl-3-methylimidazolium 4-nitropyrazolide] + CCCCCCCCCCCCCC[P+](CCCCCC)(CCCCCC)CCCCCC.O=S(=O)([N-]S(=O)(=O)C(F)(F)F)C(F)(F)F , state its recorded mass density.
Reply: 1071
